Values from patent US20030232822A1

Record form. Attribute: IC50. Fill in for each entry.
Target: human cloned dopamine D4.2 receptors (Homo sapiens, UniProt P21917, DEL265-296)
Construct: expressed in transfected cells; host or cells: CHO cells
Sequence (P21917 with tags, fused parts or gaps DEL265-296): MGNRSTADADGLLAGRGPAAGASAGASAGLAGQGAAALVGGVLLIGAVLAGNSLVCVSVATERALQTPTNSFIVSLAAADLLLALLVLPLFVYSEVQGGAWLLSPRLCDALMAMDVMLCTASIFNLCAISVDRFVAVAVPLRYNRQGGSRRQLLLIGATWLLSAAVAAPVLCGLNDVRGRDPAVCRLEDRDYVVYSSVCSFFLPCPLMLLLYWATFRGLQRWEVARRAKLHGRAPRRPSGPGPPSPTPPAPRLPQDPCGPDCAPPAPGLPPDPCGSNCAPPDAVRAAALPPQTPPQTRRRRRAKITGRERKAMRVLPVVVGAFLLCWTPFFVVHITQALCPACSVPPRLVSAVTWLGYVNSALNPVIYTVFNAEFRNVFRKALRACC
Assay: Inhibition of the binding of [3H]YM-09151-2 to human dopamine D4.2 receptors
Conditions: [3H]YM-09151-2 0.06 nM, membranes of CHO-cells
One number for each entry, in nM.

Observe how each entry below is paired with its result.
O=C1CCc2ccccc2N1CCCN1CCN(c2ccc3[nH]ccc3c2)CC1 [Compound 2a] | 3.2
c1ccc2c(c1)CCCN2CCCN1CCN(c2ccc3[nH]ccc3c2)CC1 [Compound 4a] | 2.6
O=C1CCc2ccccc2N1CCCCN1CCN(c2ccc3[nH]ccc3c2)CC1 [Compound 2b] | 18
O=C1CCc2ccccc2N1CCCN1CCC(c2ccc3[nH]ccc3c2)CC1 [Compound 2f] | 1.6
O=C1CCc2ccccc2N1CCCN1CC=C(c2ccc3[nH]ccc3c2)CC1 [Compound 2e] | 0.97

Below: the item to evaluate.
For c1ccc2c(c1)CCCN2CCCN1CCN(c2ccc3[nH]ccc3c2)CC1 [Compound 4b] , write its IC50.
8.8

----------
Biological target: human cloned dopamine D4.2 receptors (Homo sapiens, UniProt P21917, DEL265-296)
Construct: expressed in transfected cells; host or cells: CHO cells
Sequence (P21917 with tags, fused parts or gaps DEL265-296): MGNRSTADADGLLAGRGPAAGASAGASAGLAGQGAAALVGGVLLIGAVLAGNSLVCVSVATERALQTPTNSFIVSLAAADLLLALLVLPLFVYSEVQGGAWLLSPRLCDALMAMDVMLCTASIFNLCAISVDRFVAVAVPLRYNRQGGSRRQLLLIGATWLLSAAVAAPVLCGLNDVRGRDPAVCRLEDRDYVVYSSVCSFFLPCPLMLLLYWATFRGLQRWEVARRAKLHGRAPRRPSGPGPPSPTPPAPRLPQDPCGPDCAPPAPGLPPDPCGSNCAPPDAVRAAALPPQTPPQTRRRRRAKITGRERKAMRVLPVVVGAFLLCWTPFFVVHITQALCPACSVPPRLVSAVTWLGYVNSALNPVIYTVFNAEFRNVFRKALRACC
Test: Inhibition of the binding of [3H]YM-09151-2 to human dopamine D4.2 receptors
Conditions: at 50 nM; [3H]YM-09151-2 0.06 nM, membranes of CHO-cells
Experimental endpoint: D4-binding (% inhibition) (% at 50 nM)
Numbers only, in % at 50 nM.

Observe how each entry below is paired with its result.
O=C1CCc2ccccc2N1CCCN1CCN(c2ccc3cc[nH]c3c2)CC1 | 94
O=C1CCc2ccccc2N1CCCCN1CCN(c2ccc3cc[nH]c3c2)CC1 | 58
O=C1COc2ccccc2N1CCCCN1CCN(c2ccc3[nH]ccc3c2)CC1 | 56

List the reported D4-binding (% inhibition) of each compound below.
1. O=C1CCc2ccccc2N1CCN1CCN(c2ccc3[nH]ccc3c2)CC1
2. O=C1c2ccccc2CCN1CCCN1CCN(c2ccc3[nH]ccc3c2)CC1

1: 90; 2: 78
